Test system: HCT-116
test.name: NCI tumour cell line growth inhibition, 48 h
Active and inactive are the calls of the source. Cut-off read from the data, not from the text of the source: active = GI50 up to about 1.1 µM and inactive = higher.
Write down the outcome that applies. Available outcomes: active, inactive

Asked: Test call for this molecule, please: O=C1OC(O)C(Oc2c(Cl)cccc2Cl)=C1Cl (configuration not stated)
Given back: inactive

* * *

Test system: NCI-H522
test.name: NCI tumour cell line growth inhibition, 48 h
Activity calls are given as the source filed them. No stated cut-off is given here; in the data, active = GI50 up to about 1.1 µM and inactive = higher.
Write down the outcome that applies. Available outcomes: active, inactive

Solved entries (count: 3):
1) COC(=O)C1=COC2OC3C(C(C)O)C(=O)OC34C=CC1C24 (stereo not given): inactive
2) CC1=Cc2cccc(C)c2C(=O)C1=O: inactive
3) COc1ccc(C(O)c2ccc3c(c2)OCO3)cc1 (stereo not given): inactive

Asked: Test call for this compound, please: CC(c1ccccc1)n1c2ccccc2c2c(N)ncnc21 (stereo not given)
Given back: inactive

Asked: Test call for this compound, please: `O=C(O)c1ccccc1/N=N\c1c(O)c(S(=O)(=O)O)cc2cc(S(=O)(=O)O)ccc12`
Given back: active

Asked: Test call for this compound, please: `Cc1cc(C)nc(NS(=O)(=O)c2ccc(NNc3c4ccccc4nc4c(C(=O)Nc5ccc(S(=O)(=O)Nc6ncccn6)cc5)cccc34)cc2)n1`
Given back: inactive

* * *

Tested on: NCI-H460
test.name: NCI tumour cell line growth inhibition, 48 h
Activity calls are given as the source filed them. No stated cut-off is given here; in the data, active = GI50 up to about 1.1 µM and inactive = higher.
readout.kind: GI50

The following molecules have reported results that may help.
1) CC[C@@H]1C[C@H]2CC3c4[nH]c5ccc(O)cc5c4CCN(C2)C31: > 100 µM (inactive)
2) S=c1sc2c(Cl)nc(Cl)nc2n1-c1ccccc1: > 100 µM (inactive)
3) C[C@@H]1[C@H](c2ccccc2)O[B-]2(c3ccc(Br)cc3)OC(=O)C[N+]12C (stereo partly specified): > 100 µM (inactive)
4) O=C(/C=C/c1cccs1)c1ccc(Cl)s1: 72.8 µM (inactive)
5) CCOC(=O)C1(Cc2ccccc2)CCCCCN1 (stereo unspecified): > 100 µM (inactive)

Asked: Which value of GI50 has been reported for COC(=O)[C@H](CC(C)C)NC(=O)[C@H](Cc1ccccc1)N1CC2C=CC1C2 (stereo partly specified) in the records?
Given back: > 100 µM (inactive)

Asked: Which value of GI50 has been reported for CC(=O)OCC(C)C1=C(OC(C)=O)C(=O)C2(C)C/C=C(/C)CC/C=C(\C)CCC(OC(C)=O)C(C)CCC12 (stereo unspecified) in the records?
Given back: 3.55 µM (inactive)

Asked: Which value of GI50 has been reported for `NNC(=O)c1nnn(CCc2ccccc2)c1C(=O)NN` in the records?
Given back: > 100 µM (inactive)

Asked: Which value of GI50 has been reported for O=P(Nc1ccccc1)(Oc1ccccc1)N1CCN(c2ccccc2)CC1 (stereo unspecified) in the records?
Given back: 17.4 µM (inactive)

Asked: Which value of GI50 has been reported for `CCOc1ccccc1/N=C(/NC(=O)CC)SC` in the records?
Given back: > 10 µM (inactive)

Asked: Which value of GI50 has been reported for `CC1=Cc2cccc(C)c2C(=O)C1=O` in the records?
Given back: 20.5 µM (inactive)

* * *

Tested on: RXF 631
test.name: NCI tumour cell line growth inhibition, 48 h
Calls of active or inactive are those of the source. Cut-off read from the data, not from the text of the source: active = GI50 up to about 1.1 µM and inactive = higher.
readout.kind: GI50

The following molecules have reported results that may help.
1) Oc1cc(-c2ccc[nH]2)nc2cc3c(cc12)OCO3: 47.5 µM (inactive)
2) COC1N(C2CC(O)C(CO)O2)C(=O)NC(=O)C1(F)Br (stereo not drawn): 6.84 µM (inactive)
3) CC(=O)C(O)N1C(=O)C=CC1=O (stereo not drawn): 18.7 µM (inactive)
4) Cc1ccc(Nc2ccc(Nc3ccc(C)cc3S(=O)(=O)O)c3c2C(=O)c2ccccc2C3=O)c(S(=O)(=O)O)c1: > 100 µM (inactive)
5) CC[C@@H]1C[C@H]2CC3c4[nH]c5ccc(O)cc5c4CCN(C2)C31: > 100 µM (inactive)
6) CCCCCCCCCCCCCC(=O)OCC1OC(=O)CC1O (stereo not drawn): > 100 µM (inactive)
7) CC1(CO)OC1COCc1ccccc1 (stereo not drawn): > 100 µM (inactive)

Asked: Which value of GI50 has been reported for `CCc1cc(Cc2ccc(C)c(NC(=O)C(=O)C3C(=O)NC(=O)NC3=O)c2CC)cc(C)c1NC(=O)C(=O)C1C(=O)NC(=O)NC1=O` in the records?
Given back: > 100 µM (inactive)

* * *

Tested on: XF498
test.name: NCI tumour cell line growth inhibition, 48 h
Active and inactive are the calls of the source. Rule as the data show it: active = GI50 up to about 1.1 µM and inactive = higher.
Write down the outcome that applies. Available outcomes: 1 for active, -1 for inactive

Solved entries (count: 9):
1) COc1cc2c(c(OC)c1OC)-c1ccc(SC)c(=O)cc1C(NC(=O)c1ccccc1)CC2 (stereo not given): 1
2) Nc1ncc(CN2CCCC2)c(-c2ccccc2O)n1: -1
3) COc1ccc(C(=O)Cc2ccc(Cl)cc2)cc1OC: -1
4) C=C1C(=O)OC2/C=C(\CO)C3OC3C3OC3(C)CC(OC(=O)/C(=C/C)COC(C)=O)C12 (stereo not given): -1
5) CCCn1cc2c(O)nc(SC)nc2n1: -1
6) COC1=CC(=Nc2c(Cl)cc(Cl)cc2OC(=O)c2ccc([N+](=O)[O-])cc2)C=C(OC)C1=O: -1
7) COc1ccc(C2Oc3c(cc(O)c(OC)c3C)[C@@H]2C)cc1OC (stereo not given in full): -1
8) COc1cccc2c1C(=O)c1c(O)c3c(c(O)c1C2=O)C[C@@](O)(C(C)O)C[C@@H]3OC1CC(N)C(O)C(C)O1 (stereo not given in full): 1
9) COc1cc2c(c(OC)c1OC)-c1ccc(SC)c(=O)cc1C(CC(=O)Oc1cccc(C#N)c1)C2 (stereo not given): 1

# input for lookup
Asked: Test call for this molecule, please: C=CCc1cc(OC)c2c(c1)C(OC)CC(c1ccc(OC)c(OC)c1)O2 (stereo not given)
Given back: -1

* * *

Test system: K562
test.name: NCI tumour cell line growth inhibition, 48 h
Active and inactive are the calls of the source. Cut-off read from the data, not from the text of the source: active = GI50 up to about 1.1 µM and inactive = higher.
readout.kind: GI50

1) COC(=O)C(Cc1ccc(Oc2cc(CC(NC(=O)c3ccccc3)C(=O)OC)ccc2OC)cc1)NC(=O)c1ccccc1 (stereo not given): 2.01 µM (inactive)

Asked: Which value of GI50 has been reported for O=C(NCCc1ccccn1)c1ccc2cc(C(=O)N3CC(CCl)c4ccc([N+](=O)[O-])cc43)[nH]c2c1 (stereo not given) in the records?
Given back: > 100 µM (inactive)

Asked: Which value of GI50 has been reported for `CC1(C)CC(=O)C(CC2C(=O)c3ccccc3C2=O)C(=O)C1` in the records?
Given back: > 100 µM (inactive)

Asked: Which value of GI50 has been reported for `c1ccc(-c2cn3c(nc4ccccc43)c(-c3ccccc3)n2)cc1` in the records?
Given back: > 100 µM (inactive)

Asked: Which value of GI50 has been reported for Cc1ccc2c(c1)OC1Nc3ccccc3C1=C2O (stereo not given) in the records?
Given back: 25.9 µM (inactive)

* * *

Recorded measurements of GI50, one per entry
Test system: Malme-3M
test.name: NCI tumour cell line growth inhibition, 48 h
Activity calls are given as the source filed them. Rule as the data show it: active = GI50 up to about 1.1 µM and inactive = higher.

The following molecules have reported results that may help.
1. Cc1ccc(C)n1-n1c(Cc2ccc(Cl)cc2)n[nH]c1=O: 92.5 µM (inactive)
2. CC1OC(OC2C(O[C@@H]3C[C@@H]4CC[C@@H]5[C@H](CC[C@]6(C)C7C(C[C@@H]56)O[C@]5(CC[C@@H](C)CO5)[C@H]7C)[C@@]4(C)C[C@H]3O)OC(CO)C(O)C2O)C(O)C(O)C1O (stereo not given in full): 1.82 µM (inactive)
3. NC1CC(N)c2c(Br)sc(Br)c21 (stereo not given): > 100 µM (inactive)
4. COC1N(C2CC(O)C(CO)O2)C(=O)NC(=O)C1(F)Br (stereo not given): 15.1 µM (inactive)
5. c1ccc2[nH]c(-c3nc4ccccc4o3)nc2c1: > 100 µM (inactive)
6. COC(=O)c1c(O)ccc2c1c1c(n2Cc2cccc(C)c2)C(=O)c2ccccc2C1: 13.5 µM (inactive)
7. O=C(O)/C=C\C(=O)Nn1c(Cc2ccc(Cl)cc2)n[nH]c1=O: > 100 µM (inactive)
8. COc1ccc(C(O)c2ccc3c(c2)OCO3)cc1 (stereo not given): > 100 µM (inactive)

Asked: Which value of GI50 has been reported for `CCOC(=O)NC(Nc1cccc(C(F)(F)F)c1)(C(F)(F)F)C(F)(F)F` in the records?
Given back: > 100 µM (inactive)

Asked: Which value of GI50 has been reported for `Cc1c2ncccc2cc2oc3ccccc3c(=O)c12` in the records?
Given back: 68.4 µM (inactive)

* * *

Recorded measurements of GI50, one per entry
Tested on: SK-MEL-2
test.name: NCI tumour cell line growth inhibition, 48 h
Calls of active or inactive are those of the source. Cut-off read from the data, not from the text of the source: active = GI50 up to about 1.1 µM and inactive = higher.

The following compounds have reported results that may help.
1. N#Cc1c(-c2ccccc2)c(/C=N/c2ccc(Cl)cc2)c(=O)n2c1[nH]c1ccccc12: > 100 µM (inactive)
2. CC(C)C[C@H]1[C@@H](OCc2ccccc2)COS(=O)(=O)N1[C@H](C)c1ccccc1: 44.6 µM (inactive)
3. O=C1NCN(c2ccccc2)C12CCN(CCCN1CCN(CCOC(c3ccc(F)cc3)c3ccc(F)cc3)CC1)CC2: 1.96 µM (inactive)

Asked: Which value of GI50 has been reported for Cc1cc2c(cc1N)C(C)C1(CCC(=O)N2Cc2ccccc2)OCCO1 (centres undefined) in the records?
Given back: > 100 µM (inactive)

Asked: Which value of GI50 has been reported for `CSC1=C(C(=O)Nc2ccc(Cl)cc2)C(N)=NC1=O` in the records?
Given back: > 100 µM (inactive)

Asked: Which value of GI50 has been reported for `COC(=O)c1c(O)ccc2c1c1c(n2Cc2cccc(C)c2)C(=O)c2ccccc2C1` in the records?
Given back: 45 µM (inactive)

Asked: Which value of GI50 has been reported for `CN(C)c1ccc(/C=C(/NC(=O)c2ccccc2)C(=O)Nc2ccccc2C(=O)O)cc1` in the records?
Given back: > 100 µM (inactive)

Asked: Which value of GI50 has been reported for CCOC(=O)C1S/C(=N/c2ccc(Cl)cc2C)N=C1C (centres undefined) in the records?
Given back: 16.4 µM (inactive)

Asked: Which value of GI50 has been reported for `O=C(COc1ccc(OCC(=O)N/N=C/c2ccc(-c3ccc(Cl)cc3Cl)o2)c(Cl)c1)N/N=C/c1ccc(-c2ccc(Cl)cc2Cl)o1` in the records?
Given back: 17.1 µM (inactive)
